# Target System: Serotonin 2 receptors; 5-HT2a & 5-HT2c (Homo sapiens) (UniProt P28223+P28335)
# Sequence (P28223 whole entry, looked up): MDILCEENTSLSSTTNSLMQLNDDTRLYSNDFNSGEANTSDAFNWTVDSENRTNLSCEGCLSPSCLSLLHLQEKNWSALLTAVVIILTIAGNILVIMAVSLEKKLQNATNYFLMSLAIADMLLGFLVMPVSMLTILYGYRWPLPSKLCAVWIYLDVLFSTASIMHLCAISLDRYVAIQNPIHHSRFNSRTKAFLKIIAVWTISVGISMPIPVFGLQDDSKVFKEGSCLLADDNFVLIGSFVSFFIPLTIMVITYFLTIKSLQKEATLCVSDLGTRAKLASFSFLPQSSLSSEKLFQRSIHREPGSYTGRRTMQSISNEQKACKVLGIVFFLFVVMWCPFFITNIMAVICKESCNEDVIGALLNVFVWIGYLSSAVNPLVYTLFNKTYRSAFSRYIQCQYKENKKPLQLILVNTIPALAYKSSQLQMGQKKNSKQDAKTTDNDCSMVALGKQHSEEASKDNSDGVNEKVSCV
# Sequence (P28335 whole entry, looked up): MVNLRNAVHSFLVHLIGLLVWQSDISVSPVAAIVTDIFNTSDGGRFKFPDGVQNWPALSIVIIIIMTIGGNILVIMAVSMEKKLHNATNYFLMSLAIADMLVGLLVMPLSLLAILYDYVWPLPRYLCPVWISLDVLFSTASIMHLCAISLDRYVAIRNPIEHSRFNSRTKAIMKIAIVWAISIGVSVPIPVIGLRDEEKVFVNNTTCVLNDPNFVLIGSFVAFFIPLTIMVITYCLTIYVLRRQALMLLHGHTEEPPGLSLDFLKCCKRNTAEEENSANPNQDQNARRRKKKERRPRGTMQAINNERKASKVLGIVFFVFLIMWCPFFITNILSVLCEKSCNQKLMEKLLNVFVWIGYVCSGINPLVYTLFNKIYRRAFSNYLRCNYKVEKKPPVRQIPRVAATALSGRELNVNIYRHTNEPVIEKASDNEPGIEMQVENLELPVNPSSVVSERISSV
# Assay Explanation: Selectivity for 5HT2C over 5HT2A
# Format: protein assay
Measurement Name: Selectivity ratio
Just the number, please, no unit attached.

[ask] State, in one line, measured Selectivity ratio of COc1cc2c(cc1Cl)[C@H](C)[C@@H]1CNC[C@H]21
[reply] 73

[ask] State, in one line, measured Selectivity ratio of Clc1ccc2c(c1)C[C@@H]1CNC[C@H]21
[reply] 14

[ask] State, in one line, measured Selectivity ratio of CCOc1cc2c(cc1Cl)[C@H](C)[C@@H]1CNC[C@H]21
[reply] 9

[ask] State, in one line, measured Selectivity ratio of C[C@H]1c2cc(Cl)c(Cl)cc2[C@H]2CNC[C@H]21
[reply] 8

[ask] State, in one line, measured Selectivity ratio of C[C@H]1c2c(ccc(Cl)c2Cl)[C@H]2CNC[C@H]21
[reply] 50

[ask] State, in one line, measured Selectivity ratio of C[C@@H]1c2cc(Cl)c(Cl)cc2[C@H]2CNC[C@@H]12
[reply] 2

[ask] State, in one line, measured Selectivity ratio of C[C@H]1c2cc(Cl)c(O)cc2[C@H]2CNC[C@H]21
[reply] 27

[ask] State, in one line, measured Selectivity ratio of C[C@H]1c2cc(Cl)ccc2[C@H]2CNC[C@H]21
[reply] 56

[ask] State, in one line, measured Selectivity ratio of Cc1cc2c(cc1Cl)[C@H]1CNC[C@H]1[C@H]2C
[reply] 11

[ask] State, in one line, measured Selectivity ratio of COc1cc2c(cc1Br)[C@H](C)[C@@H]1CNC[C@H]21
[reply] 12

[ask] State, in one line, measured Selectivity ratio of Cc1cc2c(cc1Cl)[C@H](C)[C@@H]1CNC[C@H]21
[reply] 8
